Origin of measurements: ChEMBL document CHEMBL4619802

target or test system: HTH-type quorum-sensing regulator RhlR (Pseudomonas aeruginosa (strain ATCC 15692 / PAO1 / 1C / PRS 101 / LMG12228)) (UniProt P54292)
Sequence (whole entry): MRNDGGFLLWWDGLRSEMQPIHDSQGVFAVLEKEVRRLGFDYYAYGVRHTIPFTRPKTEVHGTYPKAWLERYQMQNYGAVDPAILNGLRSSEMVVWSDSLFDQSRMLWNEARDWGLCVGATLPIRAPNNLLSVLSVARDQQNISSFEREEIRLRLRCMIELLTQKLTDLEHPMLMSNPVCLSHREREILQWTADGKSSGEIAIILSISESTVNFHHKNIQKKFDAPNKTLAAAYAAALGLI
protocol summary: Antagonist activity at Pseudomonas aeruginosa RhlR expressed in Escherichia coli DH5alpha assessed as relative protein activity at 10 uM incubated for 1.5 hrs in presence of N-butyryl-L-homoserine lactone by luminescence reporter gene assay relative to control
Set-up: scale not given: the % may be the effect or the level left

{"compound": "CCCCC(=O)C#Cc1ccc(F)c(F)c1", "scale unit": "%", "Activity": 29}
{"compound": "CCC[C@@H](O)C#Cc1ccc(F)c(F)c1", "scale unit": "%", "Activity": 45}
{"compound": "CCCCCC(=O)C#Cc1ccc(F)c(F)c1", "scale unit": "%", "Activity": 39}
{"compound": "CCCC(O)CC(=O)/C=C/c1ccc(F)c(F)c1 (stereo unspecified)", "scale unit": "%", "Activity": 60}
{"compound": "CCCC(O)CC(=O)/C=C/c1cccc(OC)c1 (stereo unspecified)", "scale unit": "%", "Activity": 89}
{"compound": "CCCC(O)CC(=O)/C=C/c1ccc(O)c(OC)c1 (stereo unspecified)", "scale unit": "%", "Activity": 73}
{"compound": "CCCC(O)CC(=O)/C=C/c1ccc(O)c(O)c1 (stereo unspecified)", "scale unit": "%", "Activity": 60}
{"compound": "CCCC(O)C#Cc1ccc(F)c(F)c1 (racemic)", "scale unit": "%", "Activity": 45}
{"compound": "CCCC(=O)NC1CCCC1", "scale unit": "%", "Activity": 74}
{"compound": "CCCCCC(=O)/C=C/c1ccc(F)c(F)c1", "scale unit": "%", "Activity": 53}
{"compound": "CCC[C@H](O)C#Cc1ccc(F)c(F)c1", "scale unit": "%", "Activity": 59}

----------
target or test system: HTH-type quorum-sensing regulator RhlR (Pseudomonas aeruginosa (strain ATCC 15692 / PAO1 / 1C / PRS 101 / LMG12228))
protocol summary: Antagonist activity at Pseudomonas aeruginosa RhlR expressed in Escherichia coli DH5alpha assessed as relative protein activity at 100 uM incubated for 1.5 hrs in presence of N-butyryl-L-homoserine lactone by luminescence reporter gene assay relative to control
Set-up: scale not given: the % may be the effect or the level left
Below, each entry is listed alongside its reported Activity.

{"compound": "CCCC(O)CC(=O)/C=C/c1ccc(C)c(C)c1 (configuration not stated)", "scale unit": "%", "Activity": 72}
{"compound": "CCCCCC(=O)/C=C/c1ccc(F)c(F)c1", "scale unit": "%", "Activity": 51}
{"compound": "CCCC(O)CC(=O)CCc1ccc(Cl)cc1 (configuration not stated)", "scale unit": "%", "Activity": 69}
{"compound": "CCCCC[C@H](O)C#Cc1ccc(O)c(OC)c1", "scale unit": "%", "Activity": 34}
{"compound": "CCCC(O)CC(=O)/C=C/c1ccc(O)c(OC)c1 (configuration not stated)", "scale unit": "%", "Activity": 65}
{"compound": "CCCC(O)CC(=O)/C=C/c1ccc(F)c(OC)c1 (configuration not stated)", "scale unit": "%", "Activity": 43}
{"compound": "CCCC(O)CC(=O)/C=C/c1ccc(O)c(OCC)c1 (configuration not stated)", "scale unit": "%", "Activity": 91}
